- PROTOCOL TEXT: Equilibrium aqueous solubility of cilostazol in simulated intestinal fluid with solubilizers
- Assay type: physicochemical
- MEASUREMENT PARAMETERS: simulated intestinal fluid without enzyme (USP 26), fassgf or other biorelevant, thermodynamic from solid; SIF without enzyme pH 6.8, 37 °C, no solubilizer; read-out: intrinsic solubility of cilostazol
MEASURED PROPERTY: solubility (µg/mL)
Answers are plain numbers, in µg/mL.

Query: Quick check: solubility of O=C1CCc2cc(OCCCCc3nnnn3C3CCCCC3)ccc2N1 ?
Result: 6.5
